- target-of-assay: purified recombinant β-secretase (BACE1) (Homo sapiens)
- Sequence (P56817 46-501): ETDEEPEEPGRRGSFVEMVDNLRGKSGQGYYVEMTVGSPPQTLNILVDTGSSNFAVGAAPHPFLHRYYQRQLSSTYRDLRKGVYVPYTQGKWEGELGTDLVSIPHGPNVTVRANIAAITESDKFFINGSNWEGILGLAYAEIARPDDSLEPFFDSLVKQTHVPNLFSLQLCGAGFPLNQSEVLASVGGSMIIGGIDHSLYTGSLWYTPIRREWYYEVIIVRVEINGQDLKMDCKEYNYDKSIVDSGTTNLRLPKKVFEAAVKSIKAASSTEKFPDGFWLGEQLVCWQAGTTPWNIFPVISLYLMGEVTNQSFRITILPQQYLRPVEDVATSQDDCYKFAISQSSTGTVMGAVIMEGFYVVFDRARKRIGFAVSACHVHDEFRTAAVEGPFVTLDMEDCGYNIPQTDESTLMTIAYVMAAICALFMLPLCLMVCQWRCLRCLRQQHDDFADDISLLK
- run-description: BACE1 FRET enzymatic assay (Invitrogen)
- conditions-used: 12 doses; read-out: enzymatic IC50 (FRET-based BACE1 assay)
endpoint: IC50 (µM)
Unit µM implied. Number only.

1. COc1ccccc1C(=O)Nc1nc2ccccc2n1CCOc1ccccc1 :: 5.15

Please turn your attention to the following entry.
[ask] Which measured IC50 value corresponds to Oc1cc(-c2ccccc2)nn1-c1nc2ccccc2[nH]1 ?
[reply] 2.14

###

# IC50 values compiled below
- Test system: Aβ40 in SY5Y-BACEGFP-SEAPAPPwt cells
- run-description: Aβ40 ELISA (BioSource) in SY5Y-BACEGFP-SEAPAPPwt cells
- Format: cell-based
- conditions-used: SAR study, 8 concentrations (30-0.01 μM), SY5Y-BACEGFP-SEAPAPPwt cells
Unit µM implied. Number only.

1) O=C(CCc1ccccc1)NC[C@@H]1CCCN1CCOC(c1ccc(F)cc1)c1ccc(F)cc1 :: 5
2) CNC[C@@H]1CCCN1CCOC(c1ccc(F)cc1)c1ccc(F)cc1 :: 11.5

[ask] Which measured IC50 value corresponds to Fc1ccc(C(OCCN2CCN(CCCc3ccccc3)CC2)c2ccc(F)cc2)cc1 [GBR 12909, reference compound] ?
[reply] 14.5

###

- System: sAPPβ (BACE1 cleavage of SEAP-APPwt) in SY5Y-BACEGFP-SEAPAPPwt cells
- run-description: cell-based BACE1 assay (sAPPβ modified ELISA)
- conditions-used: SAR study, 8 concentrations (30-0.01 μM), SY5Y-BACEGFP-SEAPAPPwt cells; read-out: IC50(sAPPβ)
Entries are grouped by IC50 into these classes: bin A: < 10 µM; bin B: ≥ 10 µM and < 30 µM; bin C: ≥ 30 µM

1) NC[C@@H]1CCCCN1CCOC(c1ccc(F)cc1)c1ccc(F)cc1 [CNS-12] :: bin C
2) O=C(CCc1ccccc1)NC[C@@H]1CCCN1CCOC(c1ccc(F)cc1)c1ccc(F)cc1 [CNS-2] :: bin A
3) O=C(CCc1ccccc1)NC[C@@H]1CCCCN1CCOC(c1ccc(F)cc1)c1ccc(F)cc1 [CNS-14] :: bin B
4) NC[C@@H]1CCCN1C(c1ccc(F)cc1)c1ccc(F)cc1 [CNS-25] :: bin C

[ask] For the record O=C(CCc1ccccc1)NC[C@H]1CCCN1CCOC(c1ccc(F)cc1)c1ccc(F)cc1 [CNS-9] , report the class its IC50 corresponds to.
[reply] bin B

[ask] For the record O=C(CCc1ccccc1)NC[C@@H]1CCCN1C(c1ccc(F)cc1)c1ccc(F)cc1 [CNS-26] , report the class its IC50 corresponds to.
[reply] bin C

###

# IC50 values compiled below
- System: sAPPβ (BACE1 cleavage of SEAP-APPwt) in SY5Y-BACEGFP-SEAPAPPwt cells
- run-description: cell-based BACE1 assay (sAPPβ modified ELISA)
- conditions-used: SAR study, 8 concentrations (30-0.01 μM), SY5Y-BACEGFP-SEAPAPPwt cells; read-out: IC50(sAPPβ)
Unit µM implied. Number only.

1) Fc1ccc(C(OCCN2CCCC[C@H]2CNCCCc2ccccc2)c2ccc(F)cc2)cc1 :: 9
2) Fc1ccc(C(OCCN2CCC[C@H]2CNCCCc2ccccc2)c2ccc(F)cc2)cc1 :: 10.5
3) CNC[C@@H]1CCCN1CCOC(c1ccc(F)cc1)c1ccc(F)cc1 :: 11.5
4) NC[C@H]1CCCN1CCOC(c1ccc(F)cc1)c1ccc(F)cc1 :: 38.3
5) Fc1ccc(C(OCCN2CCC[C@@H]2CNCCCc2ccccc2)c2ccc(F)cc2)cc1 :: 5.7
6) COC(=O)NC[C@@H]1CCCN1CCOC(c1ccc(F)cc1)c1ccc(F)cc1 :: 23.3
7) Fc1ccc(C(c2ccc(F)cc2)N2CCC[C@H]2CNCCCc2ccccc2)cc1 :: 10.2
8) NC[C@@H]1CCCN1CCOC(c1ccc(F)cc1)c1ccc(F)cc1 :: 27.9
9) Fc1ccc(C(OCCN2CCN(CCCc3ccccc3)CC2)c2ccc(F)cc2)cc1 [GBR 12909, reference compound] :: 34.6

[ask] Which measured IC50 value corresponds to CC(=O)NC[C@@H]1CCCN1CCOC(c1ccc(F)cc1)c1ccc(F)cc1 ?
[reply] 20.8
